# assay_system: Tyrosine-protein kinase JAK3 (Homo sapiens)
# Sequence (P52333 whole entry): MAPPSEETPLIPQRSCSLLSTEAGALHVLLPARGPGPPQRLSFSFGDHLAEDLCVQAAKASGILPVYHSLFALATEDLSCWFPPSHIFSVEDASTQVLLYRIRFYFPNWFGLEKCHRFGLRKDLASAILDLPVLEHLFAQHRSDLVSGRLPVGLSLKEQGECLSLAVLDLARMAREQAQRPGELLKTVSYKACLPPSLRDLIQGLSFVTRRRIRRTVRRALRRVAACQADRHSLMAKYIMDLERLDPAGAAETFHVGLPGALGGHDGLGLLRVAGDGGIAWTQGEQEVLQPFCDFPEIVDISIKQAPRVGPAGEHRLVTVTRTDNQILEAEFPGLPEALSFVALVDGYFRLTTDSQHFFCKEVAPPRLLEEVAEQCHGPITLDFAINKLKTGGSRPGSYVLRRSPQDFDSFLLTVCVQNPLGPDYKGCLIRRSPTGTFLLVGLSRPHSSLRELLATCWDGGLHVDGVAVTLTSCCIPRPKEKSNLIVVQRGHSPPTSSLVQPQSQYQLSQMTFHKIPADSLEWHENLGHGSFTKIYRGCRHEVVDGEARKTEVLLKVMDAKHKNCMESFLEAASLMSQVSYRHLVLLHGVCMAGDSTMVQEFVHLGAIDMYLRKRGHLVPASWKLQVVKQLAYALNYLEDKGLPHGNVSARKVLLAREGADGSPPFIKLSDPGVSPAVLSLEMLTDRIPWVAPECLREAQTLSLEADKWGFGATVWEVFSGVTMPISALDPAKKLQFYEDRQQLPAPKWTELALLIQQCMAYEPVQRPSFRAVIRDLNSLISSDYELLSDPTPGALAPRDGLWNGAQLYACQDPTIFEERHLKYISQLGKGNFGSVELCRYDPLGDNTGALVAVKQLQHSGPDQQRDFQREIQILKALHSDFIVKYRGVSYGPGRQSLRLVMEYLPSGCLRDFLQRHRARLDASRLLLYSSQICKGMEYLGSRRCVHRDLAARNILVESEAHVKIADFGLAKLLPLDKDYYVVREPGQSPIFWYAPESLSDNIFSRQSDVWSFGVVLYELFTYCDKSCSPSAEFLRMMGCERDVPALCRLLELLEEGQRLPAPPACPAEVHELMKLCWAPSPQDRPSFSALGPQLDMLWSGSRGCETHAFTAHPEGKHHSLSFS
pIC50: −log10 of the molar value.
metric: pIC50

Example molecules with recorded pIC50:
input_smiles: Cc1cc2nnccc2cc1Nc1ncc2c(n1)n([C@H]1CC[C@@](C)(O)CC1)c(=O)n2C
pIC50: < 5.00

input_smiles: Cc1cc2ncccc2cc1Nc1ncc2c(n1)n([C@H]1CC[C@@](C)(O)CC1)c(=O)n2C
pIC50: < 5.00

input_smiles: Cc1cc2nnccc2cc1Nc1ncc2c(n1)n([C@H]1CC[C@](C)(O)CC1)c(=O)n2C
pIC50: < 5.00

Here is the next item to consider.
Ask: Any idea what its pIC50 is? The molecule is `Cc1cc2ncccc2cc1Nc1ncc2c(n1)n([C@H]1CC[C@](C)(O)CC1)c(=O)n2C`
Result: < 5.00

====

# assay_system: Dual specificity protein kinase TTK (Homo sapiens)
# Sequence (P33981 whole entry): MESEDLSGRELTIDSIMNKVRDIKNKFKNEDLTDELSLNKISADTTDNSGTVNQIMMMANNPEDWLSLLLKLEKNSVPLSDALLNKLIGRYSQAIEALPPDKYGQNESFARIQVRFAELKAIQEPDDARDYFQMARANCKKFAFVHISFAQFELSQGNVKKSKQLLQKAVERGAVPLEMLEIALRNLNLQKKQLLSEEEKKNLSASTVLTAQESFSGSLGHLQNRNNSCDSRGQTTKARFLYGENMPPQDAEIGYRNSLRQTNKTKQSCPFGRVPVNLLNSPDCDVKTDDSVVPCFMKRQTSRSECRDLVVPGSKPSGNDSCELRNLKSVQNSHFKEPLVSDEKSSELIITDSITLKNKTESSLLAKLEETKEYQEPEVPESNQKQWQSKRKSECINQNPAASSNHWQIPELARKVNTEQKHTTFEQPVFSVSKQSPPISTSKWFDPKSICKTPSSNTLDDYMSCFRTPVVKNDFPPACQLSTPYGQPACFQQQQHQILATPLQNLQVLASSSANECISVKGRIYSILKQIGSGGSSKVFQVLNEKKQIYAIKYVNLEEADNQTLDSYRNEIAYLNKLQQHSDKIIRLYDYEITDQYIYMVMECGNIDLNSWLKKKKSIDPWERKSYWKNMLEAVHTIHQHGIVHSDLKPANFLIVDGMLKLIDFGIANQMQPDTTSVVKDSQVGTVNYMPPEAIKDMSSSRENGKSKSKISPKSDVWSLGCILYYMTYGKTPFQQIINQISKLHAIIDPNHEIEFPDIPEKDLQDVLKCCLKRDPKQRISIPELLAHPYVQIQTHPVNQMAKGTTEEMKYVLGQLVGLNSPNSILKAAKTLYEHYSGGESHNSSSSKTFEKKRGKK
metric: pIC50
// pIC50 here means minus log10 of the molar concentration (mol/L)

Example compounds with recorded pIC50:
input_smiles: Cc1cc2nnccc2cc1Nc1ncc2c(n1)n([C@H]1CC[C@@](C)(O)CC1)c(=O)n2C
pIC50: 6.70
--
input_smiles: Cc1cc2ncccc2cc1Nc1ncc2c(n1)n([C@H]1CC[C@@](C)(O)CC1)c(=O)n2C
pIC50: 7.00
--
input_smiles: Cc1cc2ncccc2cc1Nc1ncc2c(n1)n([C@H]1CC[C@](C)(O)CC1)c(=O)n2C
pIC50: 6.60

Ask: Requested read-out pIC50, target or system Dual specificity protein kinase TTK (Homo sapiens), entry `Cc1cc2nnccc2cc1Nc1ncc2c(n1)n([C@H]1CC[C@](C)(O)CC1)c(=O)n2C`
Result: 6.50

Entry source: BindingDB's records for patent US11884671
